target: Prostaglandin D2 receptor 2 (Homo sapiens, UniProt Q9Y5Y4); assay: Displacement of [3H]-PGD2 from human CRTh2 receptor expressed in HEK293 cells; assay type: cell-based
measureName: IC50 (nM)

Known IC50 results, listed for orientation:
COc1ccc(C(=O)N2CCOCC2)cc1CSc1nc2cc(F)ccc2n1CC(=O)O: 107
CCN(CC)C(=O)c1ccc(OC)c(CSc2nc3cc(F)ccc3n2CC(=O)O)c1: 72
CCOc1ccc(C(C)=O)cc1CSc1nc2cc(F)ccc2n1CC(=O)O: 4
O=C(O)Cn1c(SCc2cccc(Br)c2)nc2ccccc21: 370
CCNC(=O)c1ccc(OC)c(CSc2nc3cc(F)ccc3n2CC(=O)O)c1: 16

[A] CCCCCCSc1nc2ccccc2n1CC(=O)O
[B] CCOC(=O)CCCSc1nc2ccccc2n1CC(=O)O
[C] Cc1cccc(CSc2nc3ccccc3n2CC(=O)O)c1
[D] CCCCSc1nc2ccccc2n1CC(=O)O
[E] COc1ccc(C(=O)OC(C)C)cc1CSc1nc2ccccc2n1CC(=O)O
Problem: hey, can you rank those molecules up there by IC50? biggest number first please Rank the items, then write their labels in that order.
Result: B, D, A, E, C
(B: 4410 nM, D: 2370 nM, A: 1360 nM, E: 150 nM, C: 105 nM)

[1] COc1ccccc1CSc1nc2ccccc2n1CC(=O)O
[2] COc1ccc(OC)c(CSc2nc3ccccc3n2CC(=O)O)c1
Problem: Please compare: 1 and 2 . Report which one has the smaller IC50 value. Identify your pick by its label.
Result: 1

====

molecular target: Prostaglandin D2 receptor 2 (Homo sapiens, UniProt Q9Y5Y4); assay: Displacement of [3H]-PGD2 from human CRTh2 receptor expressed in HEK293 cells; type: cell-based
measureName: IC50 (nM)

COc1ccc(C(C)=O)cc1CSc1nc2ccc(F)cc2n1CC(=O)O: 45
COc1ccc(C(C)=O)cc1CSc1nc2cc(S(C)(=O)=O)ccc2n1CC(=O)O: 41
COc1ccc(C(C)=O)cc1CSc1nc2cc(F)ccc2n1CC(=O)O: 2
COc1cccc(CSc2nc3ccccc3n2CC(=O)O)c1: 72
CCN(Cc1ccccc1)C(=O)c1ccc(OC)c(CSc2nc3cc(F)ccc3n2CC(=O)O)c1: 495
COC(=O)c1ccc(Br)c(CSc2nc3ccccc3n2CC(=O)O)c1: 45

[P] O=C(O)Cn1c(SCCCCOc2ccccc2)nc2ccccc21
[Q] O=C(O)Cn1c(SCCCOc2ccccc2)nc2ccccc21
Problem: Between P and Q , whose measured IC50 reads higher? Identify your pick by its label.
Result: P
(P: 1400 nM, Q: 786 nM)

====

Biological target: Prostaglandin D2 receptor 2 (Homo sapiens, UniProt Q9Y5Y4)
Sequence (Q9Y5Y4 whole entry): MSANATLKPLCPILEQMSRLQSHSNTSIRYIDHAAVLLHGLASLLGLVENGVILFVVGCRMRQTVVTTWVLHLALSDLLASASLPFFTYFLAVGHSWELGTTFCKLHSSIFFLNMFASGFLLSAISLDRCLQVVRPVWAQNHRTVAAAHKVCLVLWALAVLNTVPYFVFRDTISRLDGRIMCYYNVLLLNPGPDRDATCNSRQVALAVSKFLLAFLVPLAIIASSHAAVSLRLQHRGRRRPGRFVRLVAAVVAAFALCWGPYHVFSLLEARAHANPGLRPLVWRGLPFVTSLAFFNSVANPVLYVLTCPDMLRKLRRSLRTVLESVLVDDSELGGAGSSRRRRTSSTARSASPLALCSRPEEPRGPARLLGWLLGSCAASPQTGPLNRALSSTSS
Assay: Displacement of [3H]-PGD2 from human CRTh2 receptor expressed in HEK293 cells
Type: cell-based
pIC50: −log10 of the molar value.
measureName: pIC50

O=C(O)Cn1c(SCc2ccccc2)nc2ccccc21: 6.41

[I] COc1ccc(C)cc1CSc1nc2ccccc2n1CC(=O)O
[II] O=C(O)Cn1c(SCc2ccc(Cl)c(Cl)c2)nc2ccccc21
Problem: Please compare: I and II . Report which one has the smaller pIC50 value. Identify your pick by its label.
Result: I

Taken from ChEMBL document CHEMBL2046289.
